Target: T1, biotinylated PD1-ECD-AviHis (human, UniProt Q15116 25-170, biotinylated)
T1 construct: also called huPD1; hu PD1; not shown: Avi-His tag
T1 sequence (Q15116 25-170): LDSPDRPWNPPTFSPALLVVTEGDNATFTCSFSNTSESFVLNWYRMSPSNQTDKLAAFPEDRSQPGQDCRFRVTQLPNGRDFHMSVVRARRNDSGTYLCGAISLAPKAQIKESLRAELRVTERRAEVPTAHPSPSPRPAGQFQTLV
Experiment: ELISA on coated biotinylated PD1-ECD-AviHis
Procedure: After washing (3×90 μl/well with PBST-buffer) 25 μl/well goat-anti-human H+L-POD (JIR, JIR109-036-088)/Sheep-anti-mouse-POD (GE Healthcare; NA9310) was added in 1:2000/1:1000 dilution and incubated at RT for 1 h on shaker. After washing (3×90 μl/well with PBST-buffer) 25 μl/well TMB substrate (Roche Catalogue No. 11835033001) was added and incubated until OD 2-3. Measurement took place at 370/492 nm.
attributeMeasured: EC50 (µg/mL)

binder="PD1-0069 (antibody, V domains shown, Mouse hybridoma antibody) VH: QVQLQQSGPELVRPGVSVKISCKGSGYTFTDYAMHWVKQSHARTLEWIGVISTYSGDTNYNQKFKDKATMTVDKSSSTAYLELARMTSEDSAIYYCARLGITTGFAYWGQGTLVTVSA VL: DIVLTQSPASLAVSLGQRATISCRASKGVSTSSYSFMHWYQQKPRQPPKLLIKYASYLESGVPARFSGSGSGTDFTLNIHPVEEEDAATYYCHHSREFPWTFGGGTKLEIK" attributemeasured=EC50 observedvalue=0.0457
binder="PD1-0103 (antibody, V domains shown, Mouse hybridoma antibody; also called murine anti-PD1 antibody PD1-0103) VH: EVILVESGGGLVKPGGSLKLSCAASGFSFSSYTMSWVRQTPEKRLDWVATISGGGRDIYYPDSVKGRFTISRDNAKNTLYLEMSSLMSEDTALYYCVLLTGRVYFALDSWGQGTSVTVSS VL: KIVLTQSPASLPVSLGQRATISCRASESVDTSDNSFIHWYQQRPGQSPKLLIYRSSTLESGVPARFSGSGSRTDFTLTIDPVEADDVATYYCQQNYDVPWTFGGGTKLEIK" attributemeasured=EC50 observedvalue=0.0337
binder="PD1-0078 (antibody, V domains shown) VH: QVQLQQPGAELVKPGASVKMSCKASGYTFTSTWMHWVKQRPGQGLEWIGAIDPSDSYTTYNQKFKGKATLTVDTSSTTAYMQLSSLTSEDSAVYYCTRSPFDYWGQGTTLTVSS VL: DIVMTQSHKFMSTSVGDRVSITCKASQDVSTAVAWYQQKPGQSPKLLIYSASYRYTGVPDRFTGSGSGTDFTFAISSVQAEDLAVYYCQQHYSHPFTFGSGTKLEIK" attributemeasured=EC50 observedvalue=0.0263
binder="PD1-0050 (antibody, V domains shown) VH: DVQLQESGPGLVKPSQSLSLTCTVTGYSITSDYAWNWIRQFPGNKLEWMGYITYTGRTSYNPSLKSRISITRDTSKNQFFLQLNSVTTEDTATYYCAREMDYYGSTLDYWGQGTTLTVSS VL: KIVLTQSPASLAVSLRQRATISCRASESVDRYGNSFIHWYQQKPGQPPKVLIYRASNLESGFPARFSGSGSRTDFTLTIDPVEADDAATYYCQQNNEDPYTFGSGTKLEIK" attributemeasured=EC50 observedvalue=0.0179

FYI, the data here is from patent US20220387586A1.
